Molecular target: DPP-IV (Homo sapiens)
Construct: an extract of human colon carcinoma cell line Caco-2 is used as the DPP IV source; endogenous in cells; Nonidet-P40 solubilised extract
Sequence (P27487 whole entry): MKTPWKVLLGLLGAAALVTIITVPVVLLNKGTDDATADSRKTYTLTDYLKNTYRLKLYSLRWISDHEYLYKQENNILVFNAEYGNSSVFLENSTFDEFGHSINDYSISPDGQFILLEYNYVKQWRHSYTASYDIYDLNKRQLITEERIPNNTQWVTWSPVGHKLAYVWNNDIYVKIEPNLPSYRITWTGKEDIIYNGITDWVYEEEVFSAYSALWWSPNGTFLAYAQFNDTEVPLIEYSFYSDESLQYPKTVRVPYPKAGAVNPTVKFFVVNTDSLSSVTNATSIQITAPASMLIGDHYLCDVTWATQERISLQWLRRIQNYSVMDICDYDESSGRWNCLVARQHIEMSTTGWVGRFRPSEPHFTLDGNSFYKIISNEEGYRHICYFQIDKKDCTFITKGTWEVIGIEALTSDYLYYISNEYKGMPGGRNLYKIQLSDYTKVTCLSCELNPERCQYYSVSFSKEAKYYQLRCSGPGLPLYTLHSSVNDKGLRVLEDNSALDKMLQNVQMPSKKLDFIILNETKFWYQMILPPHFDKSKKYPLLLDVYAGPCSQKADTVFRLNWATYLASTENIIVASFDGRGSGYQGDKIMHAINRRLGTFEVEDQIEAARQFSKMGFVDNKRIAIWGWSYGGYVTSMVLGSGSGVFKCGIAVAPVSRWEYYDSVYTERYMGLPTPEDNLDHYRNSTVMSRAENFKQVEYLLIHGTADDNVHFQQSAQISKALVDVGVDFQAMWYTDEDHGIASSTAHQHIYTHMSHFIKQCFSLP
Test: DPP-IV assay with Caco-2 cell extract as DPP IV source, AFC substrate, fluorescence
Conditions: extract of human colon carcinoma cell line Caco-2; substrate 100 μM; 60 minutes at ambient temperature; read-out: DPP IV inhibition IC50
Where a name gives a salt, the structure may show the parent alone.
reported-property: IC50 (nM)

> print(dat)
                                   molecule  target.or.test.system  reported.property  recorded.measurement
1  NC1CCCN(c2nc3ncn(CC(=O)c4ccccc4)c(=O)c3n2Cc2ccccc2)C1 (centres unmarked) [1(22), trifluoroacetate]  DPP-IV (Homo sapiens)               IC50                    48
2  CNc1nc2nc(N3CCCC(N)C3)n(Cc3ccccc3)c2c(=O)n1C (centres unmarked) [1(4), trifluoroacetate]  DPP-IV (Homo sapiens)               IC50                    58
3  Cn1c(N)nc2nc(N3CCCC(N)C3)n(Cc3ccccc3)c2c1=O (centres unmarked) [1(9), trifluoroacetate]  DPP-IV (Homo sapiens)               IC50                    61
4  Cn1c(NCC2CCCCC2)nc2nc(N3CCCC(N)C3)n(Cc3ccccc3)c2c1=O (centres unmarked) [1(6), trifluoroacetate]  DPP-IV (Homo sapiens)               IC50                    48
5  Cn1c(NCc2ccccc2)nc2nc(N3CCCC(N)C3)n(Cc3ccccc3)c2c1=O (centres unmarked) [Example 1]  DPP-IV (Homo sapiens)               IC50                    11
